Provenance of the data: the supplement of paper PMC8253809

test system: DIPGX7 (H3.3 K27M diffuse intrinsic pontine glioma line); test: growth inhibition (% activity, log2 RLU normalised to DMSO / staurosporine); higher = more growth inhibition; details: 33 µM
Quantity Name: growth inhibition
Output should be the measured figure followed by the unit it is expressed in.

Some solved entries appear below for comparison.
CO[C@@H]1[C@@H](OC(N)=O)[C@@H](O)[C@H](Oc2ccc3c(O)c(NC(=O)c4ccc(O)c(CC=C(C)C)c4)c(=O)oc3c2C)OC1(C)C: 1.66%
COC(=O)[C@H](c1ccccc1Cl)N1CCc2sccc2C1: -0.551%
CC1=C(C(=O)O)N2C(=O)[C@@H](NC(=O)[C@H](N)c3ccccc3)[C@H]2SC1: 6.97%

Field: next compound
// Cc1onc(-c2ccccc2Cl)c1C(=O)N[C@@H]1C(=O)N2[C@@H]1SC(C)(C)[C@@H]2C(=O)O : growth inhibition value = -0.308%
